Values compiled from ChEMBL document CHEMBL5131497.

experiment: Drug distribution in Sprague-Dawley rat plasma measured at 0.5 hrs; type: ADME, cell-free
property.measured: concentration at 0.5 h (ng/mL)
Answers are plain numbers, in ng/mL.

Q: Requested read-out: concentration at 0.5 h. Entry: CO[C@H]1/C=C/O[C@@]2(C)Oc3c(C)c(O)c4c(c3C2=O)C2=NC3(CCN(CCn5c([N+](=O)[O-])cnc5C)CC3)NC2=C(NC(=O)/C(C)=C\C=C\[C@H](C)[C@H](O)[C@@H](C)[C@@H](O)[C@@H](C)[C@H](OC(C)=O)[C@@H]1C)C4=O [RIFASUTENIZOL]
A: 1700

====

experiment: Drug distribution in Sprague-Dawley rat vaginal secretion measured at 0.5 hrs; assay type: ADME, tissue-based, Vaginal fluid; settings: female, read-out: Ct
property.measured: concentration at 0.5 h (ng/g)
Numbers only, in ng/g.

Q: Given "CO[C@H]1/C=C/O[C@@]2(C)Oc3c(C)c(O)c4c(c3C2=O)C2=NC3(CCN(CCn5c([N+](=O)[O-])cnc5C)CC3)NC2=C(NC(=O)/C(C)=C\C=C\[C@H](C)[C@H](O)[C@@H](C)[C@@H](O)[C@@H](C)[C@H](OC(C)=O)[C@@H]1C)C4=O" , state its recorded concentration at 0.5 h.
A: 4190
